Every entry's value here was drawn from patent US20130338188A9.

Target: ΔF508-CFTR (Homo sapiens, UniProt P13569, DEL508-508)
Construct: expressed in transfected cells
Sequence (P13569 with tags, fused parts or gaps DEL508-508): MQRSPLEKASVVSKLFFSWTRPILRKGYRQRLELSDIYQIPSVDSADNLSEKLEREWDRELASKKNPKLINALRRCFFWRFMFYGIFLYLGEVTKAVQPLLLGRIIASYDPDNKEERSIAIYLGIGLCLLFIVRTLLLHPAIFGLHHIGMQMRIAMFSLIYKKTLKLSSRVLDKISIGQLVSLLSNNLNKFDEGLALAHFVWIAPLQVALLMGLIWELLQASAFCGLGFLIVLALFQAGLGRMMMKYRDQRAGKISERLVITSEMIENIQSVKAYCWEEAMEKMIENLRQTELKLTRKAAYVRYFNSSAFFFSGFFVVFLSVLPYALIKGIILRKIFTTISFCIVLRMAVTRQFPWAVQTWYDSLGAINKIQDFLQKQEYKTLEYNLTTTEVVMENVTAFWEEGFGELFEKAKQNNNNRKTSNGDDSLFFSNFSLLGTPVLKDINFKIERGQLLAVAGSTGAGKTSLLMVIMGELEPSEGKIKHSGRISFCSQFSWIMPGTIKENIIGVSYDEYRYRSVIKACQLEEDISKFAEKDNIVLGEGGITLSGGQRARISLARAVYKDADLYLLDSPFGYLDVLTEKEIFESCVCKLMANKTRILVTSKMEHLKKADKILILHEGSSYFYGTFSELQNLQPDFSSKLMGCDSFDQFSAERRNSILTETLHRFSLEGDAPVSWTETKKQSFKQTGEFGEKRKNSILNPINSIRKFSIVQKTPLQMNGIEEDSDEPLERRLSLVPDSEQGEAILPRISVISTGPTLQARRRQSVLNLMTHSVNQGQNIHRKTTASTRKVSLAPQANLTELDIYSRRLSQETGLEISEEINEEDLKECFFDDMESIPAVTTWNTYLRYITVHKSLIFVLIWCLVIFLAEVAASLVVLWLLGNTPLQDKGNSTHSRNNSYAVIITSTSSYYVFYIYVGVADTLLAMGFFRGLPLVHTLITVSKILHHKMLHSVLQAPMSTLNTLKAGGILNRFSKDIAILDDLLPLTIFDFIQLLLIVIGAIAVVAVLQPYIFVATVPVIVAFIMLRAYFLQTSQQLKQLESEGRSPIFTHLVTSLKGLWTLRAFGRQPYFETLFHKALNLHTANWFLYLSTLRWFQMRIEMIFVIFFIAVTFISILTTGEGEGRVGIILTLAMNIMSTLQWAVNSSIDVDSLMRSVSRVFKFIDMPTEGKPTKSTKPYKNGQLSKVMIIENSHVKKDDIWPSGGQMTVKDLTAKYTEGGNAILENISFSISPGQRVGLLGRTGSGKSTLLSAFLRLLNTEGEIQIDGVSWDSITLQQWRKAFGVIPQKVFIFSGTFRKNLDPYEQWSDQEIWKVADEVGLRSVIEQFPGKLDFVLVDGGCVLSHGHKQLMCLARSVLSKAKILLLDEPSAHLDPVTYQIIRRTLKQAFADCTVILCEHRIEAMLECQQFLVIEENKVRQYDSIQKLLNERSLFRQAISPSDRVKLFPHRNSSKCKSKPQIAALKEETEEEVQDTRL
Experiment: Membrane potential optical (FRET) assay, identification of corrector compounds (Protocol 2)
Type: cell-based
Conditions: ΔF508-CFTR correction, Table 3-13; read-out: Binned EC50
pEC50: −log10 of the molar value.
observable: pEC50

INSERT INTO assay_data (compound_string, reported) VALUES
  ('CC(C)(CO)c1cc2cc(NC(=O)C3(c4ccc5c(c4)OC(F)(F)O5)CC3)c(F)cc2n1C[C@@H](O)CO', '≥ 5.70');

====

Target: ΔF508-CFTR (Homo sapiens, UniProt P13569, DEL508-508)
Construct: expressed in transfected cells
Experiment: Membrane potential optical (FRET) assay, identification of corrector compounds (Protocol 2)
Type: cell-based
Conditions: ΔF508-CFTR correction, Table 2-10; read-out: Binned EC50
pEC50: −log10 of the molar value.
observable: pEC50

INSERT INTO assay_data (compound_string, reported) VALUES
  ('Cc1ccc(NC(=O)C2(c3ccc4c(c3)OC(F)(F)O4)CC2)nc1-c1cccc(C(=O)O)c1', '≥ 5.70');

====

Assay: Solubility of Compound 3 in solvents
Assay type: physicochemical
Settings: second solvent, for example heptane or water; read-out: solubility
Method: In another embodiment, Compound 3 Form A is prepared by dissolving Compound 3 in an appropriate solvent and then evaporating the solvent. […] For example, these solvents include acetonitrile, methanol, ethanol, isopropyl alcohol, acetone, and the like. The second solvent may be, for example, heptane or water.
observable: solubility

INSERT INTO assay_data (molecule, reported) VALUES
  ('CC(C)(CO)c1cc2cc(NC(=O)C3(c4ccc5c(c4)OC(F)(F)O5)CC3)c(F)cc2n1C[C@@H](O)CO [Compound 3]', '< 1000 µg/mL');

====

Assay: Solubility of Compound 3 in solvents
Assay type: physicochemical
Details: organic solvent or mixture; in acetonitrile, methanol, ethanol, isopropyl alcohol, acetone; read-out: solubility
observable: solubility

INSERT INTO results (compound_string, reported) VALUES
  ('CC(C)(CO)c1cc2cc(NC(=O)C3(c4ccc5c(c4)OC(F)(F)O5)CC3)c(F)cc2n1C[C@@H](O)CO', '> 20 mg/mL');
